Item-by-item account of pI50 S653N & W574L
- experimental system: mixture of S653N and W574L ALS enzymes (Arabidopsis thaliana, UniProt P17597)
- Construct: crude E. coli extract was used
- Format: biochemical
- experimental conditions: calculated for a mixture of equal activities of the two enzymes; pI50=3.0 used where measured <4
- Protocol: Assays were initiated by adding enzyme and terminated after 75 min incubation at 30° C. by the addition to 40 μl 0.5 M H2SO4. […] Reaction velocities were tiffed to the Michalis-Menten equation with the XLFit curve fitting program. […] Using experimentally determined pI50-values for various ALS-inhibiting herbicides, enzyme activities at different inhibitor concentrations were calculated (see Theory) for each ALS enzyme. […] If the calculated pI50-value was 3.0, the pI50 was redefined as <4.
Just the number, please, no unit attached.

Consider the reported pI50 S653N & W574L for these molecules:
Ask | Read off the recorded pI50 S653N & W574L for COc1cc(OC)nc(NC(=O)NS(=O)(=O)c2ncccc2C(=O)N(C)C)n1
Reply | 4.3

Ask | Complete the entry with pI50 S653N & W574L for COc1cc(OC)nc(NC(=O)NS(=O)(=O)c2cc(NC=O)ccc2C(=O)N(C)C)n1
Reply | 5.7

Ask | Hello, please tell me recorded pI50 S653N & W574L for this one: COc1cc(OC)n2nc(S(=O)(=O)Nc3c(Cl)ccc(C)c3Cl)nc2n1
Reply | 6.4

--- query ---
Ask | Look up and report measured pI50 S653N & W574L for this entry: COc1cc(OC)nc(NC(=O)NS(=O)(=O)c2ncccc2C(F)(F)F)n1
Reply | 7.5

---

- experimental system: mixture of P197S and W574L ALS enzymes (Arabidopsis thaliana, UniProt P17597)
- Construct: crude E. coli extract was used
- Format: biochemical
- experimental conditions: calculated for a mixture of equal activities of the two enzymes; pI50=3.0 used where measured <4
measure name: pI50 P197S & W574L
Give the figure only, with no unit attached.

Ask | Give the reported value of pI50 P197S & W574L for this record: COc1cc(OC)n2nc(NS(=O)(=O)c3c(C(F)(F)F)ccnc3OC)nc2n1
Reply | 4.8

Ask | Recall and state the measured pI50 P197S & W574L for COCc1cnc(C2=NC(C)(C(C)C)C(=O)N2)c(C(=O)O)c1 (stereo not shown) .
Reply | 4.1

Ask | Supply measured pI50 P197S & W574L of COC(=O)c1sccc1S(=O)(=O)NC(=O)Nc1nc(C)nc(OC)n1 in your reply.
Reply | 4.6

---
Ask | Quickly give me recorded pI50 P197S & W574L for COc1cc(OC)nc(NC(=O)NS(=O)(=O)c2cc(NC=O)ccc2C(=O)N(C)C)n1
Reply | 5.6

---

pI50 P197S & W574L values, listed per item
- experimental system: mixture of P197S and W574L ALS enzymes (Arabidopsis thaliana, UniProt P17597)
- Construct: crude E. coli extract was used
- Type: biochemical
- experimental conditions: calculated for a mixture of equal activities of the two enzymes; pI50=3.0 used where measured <4
Lab note: jot down the number only; don't add units.

Solved entries (count: 2):
Ask | Please indicate pI50 P197S & W574L recorded for CCS(=O)(=O)c1cccnc1S(=O)(=O)NC(=O)Nc1nc(OC)cc(OC)n1
Reply | 5.7

Ask | Note pI50 P197S & W574L for the compound shown: COc1cc(OC)nc(Oc2cccc(Oc3nc(OC)cc(OC)n3)c2C(=O)O)n1 [Bispyribac-sodium, bispyribac-sodium]
Reply | 6.1

Let us move to another entry and its pI50 P197S & W574L.
Ask | Please give measured pI50 P197S & W574L of the following entry: COc1cc(OC)nc(NC(=O)NS(=O)(=O)c2ncccc2C(=O)N(C)C)n1
Reply | 4.5
